Method summary: observation of diarrhea and loose feces in the rats
Type: in vivo, rat (Crj: Wister)
Measurement setup: rat, oral, 100 μg/kg × 3, up to 2 hours after 3rd administration
Outcome measure: diarrhea / loose feces (number of rats having diarrhea or loose feces)

Compound: CCCCC(F)(F)C(=O)CC[C@H]1[C@H](O)CC(=O)[C@@H]1CCCCCCC(=O)O [Test Compound 3, reference compound]
Result value: 1/6
--
Compound: CC[C@H](C)CC(F)(F)C(=O)CC[C@H]1[C@H](O)CC(=O)[C@@H]1CCCCCCC(=O)O
Result value: non
--
Compound: CCC[C@@H](C)C(F)(F)C(=O)CC[C@H]1CCC(=O)[C@@H]1CCCCCCC(=O)O
Result value: non
--
Compound: CC(C)CCC(F)(F)C(=O)CC[C@H]1[C@H](O)CC(=O)[C@@H]1CCCCCCC(=O)O
Result value: no diarrhea in any cases
--
Compound: CCC[C@@H](C)C(F)(F)C(=O)CC[C@H]1[C@H](O)CC(=O)[C@@H]1CCCCCCC(=O)O
Result value: no diarrhea in any cases
--
Compound: CC(C)CC(F)(F)C(=O)CC[C@H]1[C@H](O)CC(=O)[C@@H]1CCCCCCC(=O)O
Result value: non

###

inhibition in vivo at 1 mg/kg listing for selected compounds.
Tested on: acute hepatopathy model (galactosamine-elicited)
Method summary: D-galactosamine acute hepatopathy model in rats, serum biochemical liver function test (inhibiting ratio)
Format: in vivo, rat (Crj: Wister)
Measurement setup: 24 h; rat, oral, 1000 μg/kg × 3; read-out: inhibiting ratio T-Bil
Experimental: Crj: Wister rats (7 weeks old, weight: 220-250 g) were kept without food for 16 hours, and hydrochloric acid-D-galactosamine 800 mg/kg was administrated by intra peritonealy injection in order to elicit acute hepatopathy model. After 24 hours from the administration of galactosamine, blood sample was collected under ether anesthesia and a serum was separated. […]

Smiles record: CC(C)C[C@@H](C)C(F)(F)C(=O)CC[C@H]1[C@H](O)CC(=O)[C@@H]1CCCCCCC(=O)O
inhibition in vivo at 1 mg/kg (%): 88
--
Smiles record: CCC[C@H](C)C(F)(F)C(=O)CC[C@H]1[C@H](O)CC(=O)[C@@H]1CCCCCCC(=O)O
inhibition in vivo at 1 mg/kg (%): 92
--
Smiles record: CC(C)CCC(F)(F)C(=O)CC[C@H]1CCC(=O)[C@@H]1CCCCCCC(=O)O
inhibition in vivo at 1 mg/kg (%): 86
--
Smiles record: CC[C@H](C)CC(F)(F)C(=O)CC[C@H]1[C@H](O)CC(=O)[C@@H]1CCCCCCC(=O)O
inhibition in vivo at 1 mg/kg (%): 95

Source: patent US5739161A
